- Tested on: rice (Oryza sativa)
- ASSAY_DETAILS: Test B flooded paddy test plant response
- Assay type: in vivo
- MEASUREMENT_PARAMETERS: Flood (flooded paddy test), 250 g ai/ha; scale 0 to 100, 0 no effect, 100 complete control
Catalogue of Plant response rating, Rice values

Some compounds with known Plant response rating, Rice results, for comparison:
>>> result("Cc1cc(-c2ccc(Cl)cc2)nn1-c1c(OC(=O)c2ccccc2Cl)cnn(C)c1=O")
85
>>> result("Cc1cc(-c2ccc(Cl)cc2)nn1-c1c(OC(=O)CC(C)C)cnn(C)c1=O")
90
>>> result("Cc1cc(-c2ccc(Cl)cc2)nn1-c1c(OS(=O)(=O)c2cccc3ccccc23)cnn(C)c1=O")
0
>>> result("Cn1ncc(O)c(-n2nc(-c3ccc(Cl)cc3)cc2C2CC2)c1=O")
45
>>> result("CCc1cc(-c2ccc(Cl)cc2)nn1-c1c(O)cnn(C)c1=O")
70
>>> result("Cc1cc(-c2ccc(Br)cc2)nn1-c1c(OC(=O)C2CC2)cnn(C)c1=O")
80

-- ask System rice (Oryza sativa). Read-out Plant response rating, Rice. Item `CCc1cc(-c2ccc(Cl)c(Cl)c2)nn1-c1c(OC(=O)OC(C)C)cnn(C)c1=O` . Report value.
-- reply 0

-- ask System rice (Oryza sativa). Read-out Plant response rating, Rice. Item `Cc1cc(-c2ccc(C(F)(F)F)cc2)nn1-c1c(O)c(C(F)(F)F)nn(C)c1=O` . Report value.
-- reply 0

-- ask System rice (Oryza sativa). Read-out Plant response rating, Rice. Item `Cc1cc(-c2ccc(Cl)cc2)nn1-c1c(OS(=O)(=O)c2ccc(Cl)s2)cnn(C)c1=O` . Report value.
-- reply 30

-- ask System rice (Oryza sativa). Read-out Plant response rating, Rice. Item `CCc1cc(-c2ccc(C(F)(F)F)cc2)nn1-c1c(O)c(C)nn(C)c1=O` . Report value.
-- reply 80

-- ask System rice (Oryza sativa). Read-out Plant response rating, Rice. Item `CCc1cc(-c2ccc(C(F)(F)F)cc2)nn1-c1c(OC(=O)OC(C)C)cnn(C)c1=O` . Report value.
-- reply 80

====

- System: downy bromegrass (Bromus tectorum)
- ASSAY_DETAILS: Test C pre-/postemergence plant response
- Format: in vivo
- MEASUREMENT_PARAMETERS: Preemergence, 31 g ai/ha; scale 0 to 100 (0 no effect, 100 complete control)
Hi, to clarify the labels: 1 (yes) covers Plant response rating, Bromegrass, Downy from 60 upward, 0 (no) covers anything below 60.

Completed entries (count: 5):
>>> group("Cc1nn(C)c(=O)c(-n2nc(-c3ccc(Cl)cc3)cc2C)c1O")
"0 (no)"
>>> group("CCc1cc(-c2ccc(Cl)cc2)nn1-c1c(O)cnn(C)c1=O")
"1 (yes)"
>>> group("Cc1cc(-c2ccc(Cl)cc2)nn1-c1c(OC(=O)c2cccc(Cl)c2)cnn(C)c1=O")
"0 (no)"
>>> group("Cc1cc(-c2ccc(Cl)cc2)nn1-c1c(OS(=O)(=O)c2ccc(Cl)s2)cnn(C)c1=O")
"0 (no)"
>>> group("CCCc1cc(-c2ccc(Cl)cc2)nn1-c1c(O)cnn(C)c1=O")
"0 (no)"

Let's switch to this compound now.
-- ask Given the entry `CCOC(=O)Oc1cnn(C)c(=O)c1-n1nc(-c2ccc(Cl)cc2)cc1C` , answer whether its Plant response rating, Bromegrass, Downy meets or surpasses 60.
-- reply 1 (yes)
